Assay: chemical genetic growth profiling, strain panel (AID 1159580);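 note: tested at 20 µM; growth read once vehicle control cultures reached saturation at 30 °C; 1 = growth at the plate median or of vehicle wells; lower values mean less growth of the strain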
Details: S. cerevisiae deletion strains, growth OD, locus YGL086W, strain mad1, hits give low values
About 2,000 (36%) of roughly 5,500 compounds were called active. Roughly 18% stayed inconclusive and do not appear here. Some of the results follow.

Molecule	normalized growth
Cc1c(N(C)C)c(=O)n(-c2ccccc2)n1C	1
COc1cc(O)c(C(=O)c2ccccc2)cc1O	0.974
C1CCc2nnnn2CC1	0.99
CNC1(C)C2CCC(C2)C1(C)C (stereo not given)	1.01
O=c1ccc2ccccc2o1	0.981
CNc1ccccc1C(=O)N1CCc2c([nH]c3ccccc23)C1=O	0.964
CC(=O)O[C@H]1C(=O)[C@@]2(C)C([C@H](OC(=O)c3ccccc3)[C@]3(O)C[C@H](OC(=O)[C@H](O)[C@@H](NC(=O)c4ccccc4)c4ccccc4)C(C)=C1C3(C)C)[C@]1(OC(C)=O)CO[C@@H]1C[C@@H]2O (stereo not given in full)	0.944
COc1ccc2c(c1)C1(C)CCC(=O)CC1CC2 (stereo not given)	0.98
COc1ccc(C(=O)c2ccccc2O)c(O)c1	0.932
CC1(O)/C=C/C=C(\CO)C2CC(C)(C)C2(O)CC1 (stereo not given)	1
Cc1ccc2c(c1)CC[C@H]1CC(=O)CC[C@]21C	0.981
COc1ccc(-c2coc3c(OC)c(OC)cc(OC)c3c2=O)cc1	0.974
COc1c(CC=C(C)C)c2c(c3oc(=O)c(-c4ccc(O)cc4)c(O)c13)C=CC(C)(C)O2	0.937
O=c1ccc2cc(O)c(O)cc2o1	0.987
CN1CCc2cc3c(cc2C1O)OCO3 (stereo not given)	1.05
O=[N+]([O-])O[C@H]1CO[C@H]2[C@@H]1OC[C@H]2O[N+](=O)[O-]	1.01
COc1c2c(c(CC=C(C)C)c3oc(=O)c(-c4ccc(O)cc4)c(O)c13)OC(C)(C)C=C2	0.683
COc1c(CC=C(C)C)c2c(c3oc(=O)c(-c4ccc(OC(C)=O)cc4)c(OC(C)=O)c13)C=CC(C)(C)O2	1.03
Nc1nc2[nH]c(=O)c(=O)[nH]c2c(=O)[nH]1	0.978
COc1cccc2c1CCC1CC(=O)CCC21C (stereo not given)	0.922

###

Experiment: chemical genetic growth profiling, strain panel (AID 1159580);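 note: tested at 20 µM; growth read once vehicle control cultures reached saturation at 30 °C; 1 = growth at the plate median or of vehicle wells; lower values mean less growth of the strain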
Conditions: S. cerevisiae deletion strains, growth OD, locus YMR219W, strain ESC1, hits give low values
Hit rate of the full screen: of about 5,500 compounds, about 2,000 (36%) were called active. Roughly 18% stayed inconclusive and do not appear here. Some of the results follow.
Quick reference for normalized growth among some compounds
Metric: normalized growth

> print(dat)
                              sample.smiles  reported.value
1       COc1ccccc1C1CCN(Cc2ccc3ccccc3c2)CC1               1
2          O=C(O)c1cnn(-c2ccccc2)c1C(F)(F)F               1
3            CN(C)C=Nc1nc2c(s1)CCc1ccccc1-2           0.991
4  O=C(Nc1ccccc1C(=O)Nc1ccc(Br)cc1)c1ccccc1            1.01
5           CN1C(=O)CN=C(c2ccccc2)c2ccccc21               1
6  CN1C/C(=C\c2ccccc2Cl)C(=O)/C(=C/c2ccccc2Cl)C1           0.909
7                 NC1=C(c2ccccc2)C(=O)NC1=O           0.984
8         Cc1cc(=O)n2c(-c3ccc(Cl)cc3)csc2n1            0.96
9  COC(=O)c1cc(OC)c(OC)c(OC)c1NS(=O)(=O)c1cc(OC)ccc1OC               1
